B1: Pistol ribozyme (parent)
chain: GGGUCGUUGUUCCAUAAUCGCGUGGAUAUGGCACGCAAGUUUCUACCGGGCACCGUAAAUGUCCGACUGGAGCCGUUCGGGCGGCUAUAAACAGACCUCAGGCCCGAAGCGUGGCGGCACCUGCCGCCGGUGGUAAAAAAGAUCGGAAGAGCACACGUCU

Variants of: B1
PROTOCOL_DESCRIPTION: aptazyme ON/OFF ratio, guanine; higher = stronger switching; co-transcriptional cleavage with and without guanine
Listed below: aptazyme ON/OFF ratio values for each entry.
Output: the number by itself.

# count of solved cases: 6
VARIANT_CODE	MEASURED_NUMBER
U7A U8C U11A C12U	1.23
U7C U8C G9A U10G U11G C13G	1.23
U7A G9C U10C C12A	1.04
U7C G9C U10C U11G C12A C13A	1.14
U7C U8C G9A U10C U11A C12G	1.23
U8G G9A U10C U11G C12U C13U	1.21

Read off the recorded aptazyme ON/OFF ratio for U8A G9A U10G C12G C13U 1.26

Read off the recorded aptazyme ON/OFF ratio for U7A U8C U10C U11G C12G C13U 1.14

Read off the recorded aptazyme ON/OFF ratio for U7G G9A U10A C13U 1.28

Read off the recorded aptazyme ON/OFF ratio for U11A C13U 1.29
